# testedTarget: Short transient receptor potential channel 6 (Mus musculus) (UniProt Q61143)
# Sequence (Q61143 whole entry, looked up): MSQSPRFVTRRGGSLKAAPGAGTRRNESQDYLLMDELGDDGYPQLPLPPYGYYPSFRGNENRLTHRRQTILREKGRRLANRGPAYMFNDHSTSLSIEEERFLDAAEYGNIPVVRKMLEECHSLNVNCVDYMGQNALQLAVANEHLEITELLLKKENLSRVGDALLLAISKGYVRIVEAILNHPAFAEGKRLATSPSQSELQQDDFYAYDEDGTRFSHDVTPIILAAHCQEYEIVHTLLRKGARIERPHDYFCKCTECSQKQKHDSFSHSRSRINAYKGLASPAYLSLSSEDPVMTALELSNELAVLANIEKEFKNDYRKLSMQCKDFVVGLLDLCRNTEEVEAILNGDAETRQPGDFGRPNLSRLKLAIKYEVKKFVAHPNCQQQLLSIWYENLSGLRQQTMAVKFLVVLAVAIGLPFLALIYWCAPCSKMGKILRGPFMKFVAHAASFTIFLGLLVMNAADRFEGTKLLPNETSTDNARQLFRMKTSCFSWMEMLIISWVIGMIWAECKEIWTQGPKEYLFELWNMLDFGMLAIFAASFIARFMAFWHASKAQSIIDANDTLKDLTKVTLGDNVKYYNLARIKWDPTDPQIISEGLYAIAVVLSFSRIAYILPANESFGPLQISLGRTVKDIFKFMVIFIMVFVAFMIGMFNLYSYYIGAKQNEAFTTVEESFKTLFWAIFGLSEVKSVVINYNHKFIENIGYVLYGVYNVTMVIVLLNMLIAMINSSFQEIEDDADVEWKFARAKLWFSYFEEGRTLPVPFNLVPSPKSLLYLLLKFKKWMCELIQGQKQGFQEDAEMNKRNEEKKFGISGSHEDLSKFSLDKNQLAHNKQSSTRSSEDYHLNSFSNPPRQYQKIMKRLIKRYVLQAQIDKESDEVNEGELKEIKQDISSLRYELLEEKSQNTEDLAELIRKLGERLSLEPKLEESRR
# experimentDescription: TRPC6 potentiation by TRPC4 potentiator hits, confirmation, selectivity assay for TRPC4 potentiator project, HEK293 cells, membrane potential dye, duplicate (AID 434952)
# cond: HEK293 TRPC6, membrane potential dye fluorescence, at 10 µM, maximal acetylcholine added after compound; active compounds read high
Activity calls are given as the source filed them.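 How the source made its calls: active means compound raising the membrane signal above positive-control mean plus 3 SD in both repeats, and a primary screen hit; inactive means the rest.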

[
  {
    "compound": "O=C(NCc1ccccc1)C1=C[C@H](c2ccc3c(c2)OCO3)C[C@H](OCc2ccc(CO)cc2)O1",
    "testedTarget": "Short transient receptor potential channel 6 (Mus musculus) (UniProt Q61143)",
    "potentiation, percent of control": "inactive"
  },
  {
    "compound": "CCN(CC)CCCOc1ccc(Cl)c(Cl)c1",
    "testedTarget": "Short transient receptor potential channel 6 (Mus musculus) (UniProt Q61143)",
    "potentiation, percent of control": "inactive"
  },
  {
    "compound": "Cc1ccc2c(nc3s/c(=C\\c4ccc(-c5ccccc5C(=O)O)o4)c(=O)n32)c1C",
    "testedTarget": "Short transient receptor potential channel 6 (Mus musculus) (UniProt Q61143)",
    "potentiation, percent of control": "inactive"
  },
  {
    "compound": "C/C=C(\\C)CN1CCC(n2nccc2NC(=O)CCc2ccccc2)CC1",
    "testedTarget": "Short transient receptor potential channel 6 (Mus musculus) (UniProt Q61143)",
    "potentiation, percent of control": "inactive"
  },
  {
    "compound": "O=C(c1sc2ccccc2c1Cl)N(Cc1cccs1)C1CCS(=O)(=O)C1 (stereo unspecified)",
    "testedTarget": "Short transient receptor potential channel 6 (Mus musculus) (UniProt Q61143)",
    "potentiation, percent of control": "inactive"
  },
  {
    "compound": "Cc1cc(C)n(-c2nc(SCCN(C)C)c3c4c(sc3n2)CCCC4)n1",
    "testedTarget": "Short transient receptor potential channel 6 (Mus musculus) (UniProt Q61143)",
    "potentiation, percent of control": "inactive"
  },
  {
    "compound": "Cc1ccc(/C=N\\NC(=O)C2COc3cc4ccccc4cc3O2)o1 (stereo unspecified)",
    "testedTarget": "Short transient receptor potential channel 6 (Mus musculus) (UniProt Q61143)",
    "potentiation, percent of control": "inactive"
  },
  {
    "compound": "CN(C)CCCN(C(=O)c1ccc(C(=O)c2ccccc2)cc1)c1nc2ccc(F)cc2s1",
    "testedTarget": "Short transient receptor potential channel 6 (Mus musculus) (UniProt Q61143)",
    "potentiation, percent of control": "inactive"
  },
  {
    "compound": "Cc1cc(Cl)cc(C)c1OCCCCn1ccnc1",
    "testedTarget": "Short transient receptor potential channel 6 (Mus musculus) (UniProt Q61143)",
    "potentiation, percent of control": "inactive"
  },
  {
    "compound": "CN(C)C(CNC(=S)Nc1cccc(Cl)c1)c1cccnc1 (stereo unspecified)",
    "testedTarget": "Short transient receptor potential channel 6 (Mus musculus) (UniProt Q61143)",
    "potentiation, percent of control": "inactive"
  },
  {
    "compound": "O=S(=O)(c1ccc(Cl)cc1)N1CCN2CCCC2C1 (stereo unspecified)",
    "testedTarget": "Short transient receptor potential channel 6 (Mus musculus) (UniProt Q61143)",
    "potentiation, percent of control": "inactive"
  }
]

====

# experimentDescription: calcium flux enhancement in mu-opioid HEK293 cells, confirmation, counter-screen for TRPC4 allosteric potentiator project, cell-based, HEK293 mu-opioid receptor line (AID 449724);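 further: HEK293 cells carrying mu-opioid receptor only with no TRPC4 channel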
# cond: Fluo-4 calcium flux, at 10 µM, compound added before EC20 DAMGO stimulus; active compounds read high
Calls of active or inactive are those of the source.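 Rule for the calls: active = calcium signal rise more than 3 SD above the low-dose agonist control mean, in both duplicate plates and the primary screen; inactive = the rest.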
assayReadout: activation

[
  {
    "compound": "O=C(NCCc1ccccn1)C(F)(F)C(F)(F)C(F)(F)C(F)(F)C(F)(F)C(F)F",
    "assayReadout": "activation",
    "assayResult": "inactive"
  },
  {
    "compound": "Cc1cc(OCCNCCO)cc(C)c1Cl",
    "assayReadout": "activation",
    "assayResult": "inactive"
  },
  {
    "compound": "Cc1ccc(C2(O)CN(c3ccccc3C)C3=[N+]2CCS3)cc1 (stereo not drawn)",
    "assayReadout": "activation",
    "assayResult": "inactive"
  },
  {
    "compound": "CCN1CCN(c2ccc(S(=O)(=O)N3CCCCC3)cc2NC(=O)C(C)Oc2ccc(F)cc2)CC1 (stereo not drawn)",
    "assayReadout": "activation",
    "assayResult": "inactive"
  },
  {
    "compound": "CCN1CCN(c2ccc(S(=O)(=O)N3CCCCC3)cc2NC(=O)COc2ccccc2)CC1",
    "assayReadout": "activation",
    "assayResult": "inactive"
  },
  {
    "compound": "Cc1cc(C)c(C)c(OCCCN(C)C)c1",
    "assayReadout": "activation",
    "assayResult": "inactive"
  },
  {
    "compound": "Cc1ccccc1NC(=S)NCCc1ccccn1",
    "assayReadout": "activation",
    "assayResult": "inactive"
  },
  {
    "compound": "CCCCCSc1nnc2c(n1)OC(c1cccn1C)N(C(C)=O)c1ccccc1-2 (stereo not drawn)",
    "assayReadout": "activation",
    "assayResult": "inactive"
  },
  {
    "compound": "CC(=O)N1CCc2cc(Br)cc(S(=O)(=O)NCCCN(C)Cc3ccccc3)c21",
    "assayReadout": "activation",
    "assayResult": "inactive"
  },
  {
    "compound": "Cc1ccccc1OCC(=O)NNC(=S)NC(=O)c1ccco1",
    "assayReadout": "activation",
    "assayResult": "inactive"
  },
  {
    "compound": "Cc1ccccc1OCC(O)Cn1c(=N)n(Cc2ccccc2)c2ccccc21 (stereo not drawn)",
    "assayReadout": "activation",
    "assayResult": "inactive"
  },
  {
    "compound": "Cc1ccc2[nH]c3c(=O)n(CCc4cnc[nH]4)cnc3c2c1",
    "assayReadout": "activation",
    "assayResult": "inactive"
  },
  {
    "compound": "Cc1c(CN2CCC(n3nccc3NC(=O)C3CC3)CC2)[nH]c2ccccc12",
    "assayReadout": "activation",
    "assayResult": "inactive"
  },
  {
    "compound": "CCN(CC)CCSc1nc2ccc(OC)cc2[nH]1",
    "assayReadout": "activation",
    "assayResult": "inactive"
  },
  {
    "compound": "O=c1c2cc(Br)ccc2nc(-c2cccc(C(F)(F)F)c2)n1O",
    "assayReadout": "activation",
    "assayResult": "inactive"
  },
  {
    "compound": "CN1C2C=C(N(CCc3c[nH]c4ccccc34)C(=O)c3ccc(Cl)cc3)CC1CC2 (stereo not drawn)",
    "assayReadout": "activation",
    "assayResult": "inactive"
  },
  {
    "compound": "CCCCN(CC)CCNC(=O)c1cc2cc3ccc(Cl)cc3nc2o1",
    "assayReadout": "activation",
    "assayResult": "inactive"
  },
  {
    "compound": "Cc1ccc(N2CCN(c3ccc(NCc4nc5ccccc5n4C)cc3)CC2)cc1",
    "assayReadout": "activation",
    "assayResult": "inactive"
  },
  {
    "compound": "CN(C)C(CNC(=O)/C=C/c1cccc(Cl)c1)c1ccccc1 (stereo not drawn)",
    "assayReadout": "activation",
    "assayResult": "inactive"
  },
  {
    "compound": "COc1cccc(-c2nn(-c3ccccc3)cc2CN(C)C(C)c2ccncn2)c1 (stereo not drawn)",
    "assayReadout": "activation",
    "assayResult": "inactive"
  },
  {
    "compound": "C=CCn1c(CCNC(=O)c2ccco2)nc2ccccc21",
    "assayReadout": "activation",
    "assayResult": "inactive"
  },
  {
    "compound": "Cc1cc(-c2ccc(C)c(S(=O)(=O)NCCCN(Cc3ccccc3)C(C)C)c2)on1",
    "assayReadout": "activation",
    "assayResult": "inactive"
  },
  {
    "compound": "O=C(Nc1nnc(-c2ccccc2Cl)o1)c1nc2ccccc2s1",
    "assayReadout": "activation",
    "assayResult": "inactive"
  }
]

====

# testedTarget: Potassium voltage-gated channel subfamily KQT member 2 (Rattus norvegicus)
# experimentDescription: rat KCNQ2 channel potentiation, selectivity assay for KCNQ1 potentiator project, KCNQ2-CHO-K1 cells (AID 493009);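 further: assay conditions were tuned for KCNQ1 rather than KCNQ2 modulators; signal is max minus min fluorescence divided by baseline after thallium stimulus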
# cond: FluxOR thallium flux fluorescence, at 10 µM, scaled: buffer 0, activator control 100
Active and inactive are the calls of the source.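 The calls were made as follows: active = mean duplicate potentiation above the buffer control mean plus 5 SD of buffer wells; inactive = the rest.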
Classes used: active, inactive

[
  {
    "molecule": "COc1ccccc1NS(=O)(=O)c1cc(NC(=O)c2cnccn2)ccc1N1CCOCC1",
    "categoryLabel": "active"
  },
  {
    "molecule": "O=c1c2ccccc2[nH]c(=S)n1C1CCCCC1",
    "categoryLabel": "inactive"
  },
  {
    "molecule": "COc1ccccc1C(=O)NC(=S)NNC(=O)c1sc2ccccc2c1Cl",
    "categoryLabel": "active"
  },
  {
    "molecule": "CC(C)N(C(=O)CSc1ncnc2sc(-c3ccccc3)cc12)C(C)C",
    "categoryLabel": "inactive"
  },
  {
    "molecule": "CC(C)CNC(=S)NC(=O)c1ccc([N+](=O)[O-])cc1",
    "categoryLabel": "inactive"
  },
  {
    "molecule": "Cc1cccc(NC(=O)C2CCCN2S(=O)(=O)c2ccc(Cl)cc2)n1 (configuration not stated)",
    "categoryLabel": "inactive"
  },
  {
    "molecule": "CCC(C)[C@H](N)c1nnc(SCC(=O)Nc2cccc(Cl)c2)o1 (some centres not stated)",
    "categoryLabel": "active"
  },
  {
    "molecule": "O=C1c2cccc3cccc(c23)C(=O)C1(O)O",
    "categoryLabel": "inactive"
  },
  {
    "molecule": "COc1cc(-c2nnc(COC(=O)c3cccn3C)o2)cc(OC)c1OC",
    "categoryLabel": "inactive"
  },
  {
    "molecule": "C#CCOCCOCCOCCNc1nc(N2CCN(C(=O)C([C@@H](C)CC)n3cc(C(N)Cc4ccc(O)cc4)nn3)CC2)nc(N2CCN(C(=O)[C@H](CCC(=O)O)n3cc(C(N)CC(C)C)nn3)CC2)n1 (some centres not stated)",
    "categoryLabel": "inactive"
  },
  {
    "molecule": "Cc1ccc(C(=O)O/N=C(\\N)Cc2cccs2)c(Cl)c1",
    "categoryLabel": "inactive"
  },
  {
    "molecule": "CCOC(=O)/C(=C\\c1cccnc1)C(=O)c1cc(C(C)=O)c(Nc2ccccc2)s1",
    "categoryLabel": "inactive"
  },
  {
    "molecule": "CCN(CC)C(=S)NC(=O)c1ccc(OC)c(Br)c1",
    "categoryLabel": "active"
  },
  {
    "molecule": "CC(=O)c1c(N2CCOCC2)[nH]c(-c2ccccc2)nc1=S",
    "categoryLabel": "active"
  },
  {
    "molecule": "CCCc1cc(=O)n2[nH]cc(-c3ccc(Cl)cc3)c2n1",
    "categoryLabel": "active"
  },
  {
    "molecule": "CC(=C/c1ccccc1)/C=N/n1c(-c2ccco2)n[nH]c1=S",
    "categoryLabel": "inactive"
  },
  {
    "molecule": "Cc1[nH]n(-c2ccccc2)c(=O)c1/C=N/N(c1ccccc1)c1ccccc1",
    "categoryLabel": "inactive"
  },
  {
    "molecule": "Cc1cc(/C=N/n2cnnc2)c(C)n1-c1cc(Cl)ccc1Cl",
    "categoryLabel": "inactive"
  },
  {
    "molecule": "Cc1cccc(C(=O)NC(=S)NNC(=O)COc2ccc(Cl)cc2)c1",
    "categoryLabel": "active"
  },
  {
    "molecule": "CCCCOC(=O)c1ccc(NC(=S)NC(=O)c2c(Cl)cnn2CC)cc1",
    "categoryLabel": "active"
  },
  {
    "molecule": "CC1CCCC(NC(=S)NC(=O)c2ccccc2Br)C1C (configuration not stated)",
    "categoryLabel": "inactive"
  },
  {
    "molecule": "O=C(NC(=S)Nc1ccccc1N1CCCC1)c1cccs1",
    "categoryLabel": "active"
  }
]
